System: NCI-H2085
experiment: relative viability (nuclei count vs DMSO), 5 days (fraction); higher = more cells survive
particulars: first compound 0.002 µM

| compound | relative viability |
| --- | --- |
| CC(=O)O[C@@]12CO[C@@H]1C[C@H](O)[C@@]1(C)C(=O)[C@H](O)C3=C(C)[C@@H](OC(=O)[C@H](O)[C@@H](NC(=O)OC(C)(C)C)c4ccccc4)C[C@@](O)([C@@H](OC(=O)c4ccccc4)[C@H]21)C3(C)C [Docetaxel] + COc1cc2c(Oc3ccc(NC(=O)C4(C(=O)Nc5ccc(F)cc5)CC4)cc3F)ccnc2cc1OCCCN1CCOCC1 [Foretinib] (partner 0.25 µM) | 0.568 |
| CC(=O)O[C@@]12CO[C@@H]1C[C@H](O)[C@@]1(C)C(=O)[C@H](O)C3=C(C)[C@@H](OC(=O)[C@H](O)[C@@H](NC(=O)OC(C)(C)C)c4ccccc4)C[C@@](O)([C@@H](OC(=O)c4ccccc4)[C@H]21)C3(C)C [Docetaxel] + CC(C)C[C@H](NC(=O)[C@H](Cc1ccccc1)NC(=O)c1cnccn1)B(O)O [Bortezomib] (partner 0.002 µM) | 0.718 |
| CC(=O)O[C@@]12CO[C@@H]1C[C@H](O)[C@@]1(C)C(=O)[C@H](O)C3=C(C)[C@@H](OC(=O)[C@H](O)[C@@H](NC(=O)OC(C)(C)C)c4ccccc4)C[C@@](O)([C@@H](OC(=O)c4ccccc4)[C@H]21)C3(C)C [Docetaxel] + COc1cccc2cc(-c3nc([C@H]4CC[C@H](C(=O)O)CC4)n4ncnc(N)c34)[nH]c12 [OSI-027] (partner 0.5 µM) | 0.433 |
| CC(=O)O[C@@]12CO[C@@H]1C[C@H](O)[C@@]1(C)C(=O)[C@H](O)C3=C(C)[C@@H](OC(=O)[C@H](O)[C@@H](NC(=O)OC(C)(C)C)c4ccccc4)C[C@@](O)([C@@H](OC(=O)c4ccccc4)[C@H]21)C3(C)C [Docetaxel] + O=C(CCCCCCC(=O)Nc1ccccc1)NO [Vorinostat] (partner 1 µM) | 0.736 |

====

Test system: NCI-H2342
experiment: relative viability (nuclei count vs DMSO), 5 days (fraction); higher = more cells survive
particulars: first compound 15.81 µM
// relative viability lookup, one value per entry

| compound | relative viability |
| --- | --- |
| O=C(O)CCCCC(CCSCc1ccccc1)SCc1ccccc1 (centres undefined) [CPI-613] + Cc1cc(Nc2cc(N3CCN(C)CC3)nc(Sc3ccc(NC(=O)C4CC4)cc3)n2)n[nH]1 [Tozasertib] (partner 0.1 µM) | 0.527 |
| O=C(O)CCCCC(CCSCc1ccccc1)SCc1ccccc1 (centres undefined) [CPI-613] + N=C(N)NC(=N)NCCc1ccccc1 [Phenformin] (partner 250 µM) | 0.589 |
| O=C(O)CCCCC(CCSCc1ccccc1)SCc1ccccc1 (centres undefined) [CPI-613] + NC(=O)Nc1cc(-c2cccc(F)c2)sc1C(=O)N[C@H]1CCCNC1 [AZD7762] (partner 0.2 µM) | 0.454 |
| O=C(O)CCCCC(CCSCc1ccccc1)SCc1ccccc1 (centres undefined) [CPI-613] + O=C(CCCCCCC(=O)Nc1ccccc1)NO [Vorinostat] (partner 1 µM) | 0.629 |

====

Test system: NCI-H1623
experiment: relative viability (nuclei count vs DMSO), 5 days (fraction); higher = more cells survive
particulars: first compound 0.01581 µM
property: relative viability

| molecule | property | reported value |
| --- | --- | --- |
| Nc1ccn([C@@H]2O[C@H](CO)[C@@H](O)[C@@H]2O)c(=O)n1 [Cytarabine] + COc1cc2c(Oc3ccc(NC(=O)C4(C(=O)Nc5ccc(F)cc5)CC4)cc3F)ccnc2cc1OCCCN1CCOCC1 [Foretinib] (partner 0.25 µM) | relative viability | 0.545 |
| COc1cc2nccc(Oc3ccc(NC(=O)Nc4cc(C)on4)c(Cl)c3)c2cc1OC [Tivozanib] + N=C(N)NC(=N)NCCc1ccccc1 [Phenformin] (partner 250 µM) | relative viability | 0.622 |
| COc1cc2nccc(Oc3ccc(NC(=O)Nc4cc(C)on4)c(Cl)c3)c2cc1OC [Tivozanib] + COc1cc2c(Oc3ccc(NC(=O)C4(C(=O)Nc5ccc(F)cc5)CC4)cc3F)ccnc2cc1OCCCN1CCOCC1 [Foretinib] (partner 0.25 µM) | relative viability | 0.989 |
| Nc1ccn([C@@H]2O[C@H](CO)[C@@H](O)[C@@H]2O)c(=O)n1 [Cytarabine] + Cc1nc(Nc2ncc(C(=O)Nc3c(C)cccc3Cl)s2)cc(N2CCN(CCO)CC2)n1 [Dasatinib] (partner 0.075 µM) | relative viability | 0.449 |
| COc1cc2nccc(Oc3ccc(NC(=O)Nc4cc(C)on4)c(Cl)c3)c2cc1OC [Tivozanib] + Cc1cc(Nc2cc(N3CCN(C)CC3)nc(Sc3ccc(NC(=O)C4CC4)cc3)n2)n[nH]1 [Tozasertib] (partner 0.1 µM) | relative viability | 0.467 |

The reported numbers originate from the supplement of paper PMC10307832.
